The reported numbers originate from patent US20240366612A1.

Kindly state AC50 for each of the entries shown.
tested on: HTT mRNA; assay: Splicing RT-qPCR assay, HTT canonical (CJ) and alternative (AJ) junction mRNA; assay type: cell-based; conditions: Homo sapiens, increase in AJ mRNA, A673 or K562 cells, 24 hours treatment

### Prompt Which measured AC50 value corresponds to Cc1cn2nc(-c3cc4ccn(C5CCN(C)CC5)c(=O)c4s3)cc(C)c2n1 ?
### Response 1000 to 10000 nM

### Prompt Which AC50 is listed for Cc1cn2nc(-c3cc(=O)n4cc(N(C)C5CC(C)(C)NC(C)(C)C5)sc4n3)cc(C)c2n1 ?
### Response 1000 to 10000 nM

### Prompt What value of AC50 has been reported for the following molecule? Cc1cc(-c2cc3cnn(C4CCNCC4)c(=O)c3s2)cc2cn(C)nc12
### Response 100 to 1000 nM

### Prompt Reported AC50, molecule Cn1cc2cc(-n3cnc4nc(N5CCNCC5)sc4c3=O)ccc2n1 : ____
### Response > 10000 nM
